# System: ANKA strain of P. berghei
# procedure.text: Single dose STI in vivo screen in infected mice
# Set-up: species or system Plasmodium berghei
# measurement.setup: single 10 mg/kg po in SSV; untreated 6-7 days
Where a name gives a salt, the structure may show the parent alone.
Survival (days) 10 mg/kg SSV po vs 8 days: at or above is TRUE, below is FALSE.

Previously resolved entries follow.
CCOC(=O)N1C2CCC1CC1(C2)OOC2(O1)C1CC3CC(C1)CC2C3 (centres unmarked)    FALSE
O=C(C[C@H]1CC[C@]2(CC1)OOC1(O2)C2CC3CC(C2)CC1C3)N1CCOCC1 (some centres unmarked)    TRUE
c1cc(OC[C@H]2CC[C@]3(CC2)OO[C@]2(O3)C3CC4CC(C3)CC2C4)ccn1    TRUE
N=C(N)NC[C@H]1CC[C@]2(CC1)OOC1(O2)C2CC3CC(C2)CC1C3 (some centres unmarked) [OZ237, hydrochloride]    FALSE
CCN(CC)CCCC(C)Nc1ccnc2cc(Cl)ccc12 (centres unmarked) [CQ, chloroquine, reference compound]    TRUE

Input: // inclusive: Survival (days) 10 mg/kg SSV po at least 8 days? input: CN(C)S(=O)(=O)N1CCC2(CC1)OOC1(O2)C2CC3CC(C2)CC1C3 (centres unmarked)
Output: FALSE

Input: Hi team, for CC1(C)C2CCC1(CS(=O)(=O)N1CCC3(CC1)OOC1(O3)C3CC4CC(C3)CC1C4)C(=O)C2 (centres unmarked) , is the recorded Survival (days) 10 mg/kg SSV po at or above 8 days?
Output: FALSE

Input: # check: Survival (days) 10 mg/kg SSV po of `N[C@H]1CCN(C(=O)C[C@H]2CC[C@]3(CC2)OO[C@]2(O3)C3CC4CC(C3)CC2C4)C1` is greater than or equal to 8 days
Output: TRUE

Input: Please tell me: is the molecule NC(=O)CNC[C@H]1CC[C@]2(CC1)OOC1(O2)C2CC3CC(C2)CC1C3 (some centres unmarked) at or over 8 days in terms of Survival (days) 10 mg/kg SSV po?
Output: TRUE

Input: Is the recorded value of Survival (days) 10 mg/kg SSV po equal to or greater than 8 days for this molecule? `O=C(NC[C@H]1CC[C@]2(CC1)OO[C@]1(O2)C2CC3CC(C2)CC1C3)[C@@H]1CCCN1`
Output: TRUE
